assay: Intracellular total glutathione (GSH); conditions: human, SK-MEL28 cells
endpoint: CC50 at 24 h (µM)
State the answer as a number, implicitly in µM.

Returns the measured CC50 at 24 h for the input molecule. Input: `CC[C@@]1(O)C(=O)OCc2c1cc1n(c2=O)Cc2cc3ccccc3nc2-1`
10

====

assay: MTT reduction; conditions: human
endpoint: CC50 at 72 h (nM)
State the answer as a number, implicitly in nM.

Returns the measured CC50 at 72 h for the input compound. Input: C=C(C)[C@H]1Cc2c(ccc3c2O[C@@H]2COc4cc(OC)c(OC)cc4[C@@H]2C3=O)O1 [ROTENONE, Rotenone]
200

====

test: Intracellular ATP levels; format: cell-based, rat; conditions: rat; H4IIE, 24 HR exposure; read-out: ATP TC50
endpoint: CC50 at 24 h

Returns the measured CC50 at 24 h for the input molecule. Input: `C=C(C)[C@H]1Cc2c(ccc3c2O[C@@H]2COc4cc(OC)c(OC)cc4[C@@H]2C3=O)O1`
40 nM

====

assay: Intracellular total glutathione (GSH); conditions: human, human hepatocytes
endpoint: CC50 at 24 h (µM)
State the answer as a number, implicitly in µM.

Returns the measured CC50 at 24 h for the input compound. Input: `CC[C@@]1(O)C(=O)OCc2c1cc1n(c2=O)Cc2cc3ccccc3nc2-1`
44

====

assay: MTT reduction; assay type: cell-based, rat; conditions: rat
endpoint: CC50 at 3 h

Returns the measured CC50 at 3 h for the input compound. Input: `COc1cccc2c1C(=O)c1c(O)c3c(c(O)c1C2=O)C[C@@](O)(C(=O)CO)C[C@@H]3O[C@H]1C[C@H](N)[C@H](O)[C@H](C)O1`
41 µM

====

test: MTT reduction; assay type: cell-based, rat; conditions: rat, MTT TC50
Let's look at some compounds and their measured CC50 at 24 h.
State the answer as a number, implicitly in µM.

# annotated cases, reported CC50 at 24 h shown
mol_smiles=CC(=O)[C@]1(O)Cc2c(O)c3c(c(O)c2[C@@H](O[C@H]2C[C@H](N)[C@H](O)[C@H](C)O2)C1)C(=O)c1ccccc1C3=O result_units=µM obs_value=3
mol_smiles=O=C1Nc2ccc(Cl)cc2[C@@](C#CC2CC2)(C(F)(F)F)O1 result_units=µM obs_value=161
mol_smiles=COc1cccc2c1C(=O)c1c(O)c3c(c(O)c1C2=O)C[C@@](O)(C(=O)CO)C[C@@H]3O[C@H]1C[C@H](N)[C@H](O)[C@H](C)O1 result_units=µM obs_value=13
mol_smiles=Cc1cccc(C)c1OCC(=O)N[C@@H](Cc1ccccc1)[C@@H](O)C[C@H](Cc1ccccc1)NC(=O)[C@H](C(C)C)N1CCCNC1=O result_units=µM obs_value=184

Let us examine a further case.
Returns the measured CC50 at 24 h for the input compound. Input: `CC(C)Nc1cccnc1N1CCN(C(=O)c2cc3cc(NS(C)(=O)=O)ccc3[nH]2)CC1`
218

====

test: MTT reduction; assay type: cell-based, rat; settings: rat
endpoint: CC50 at 1 h

Returns the measured CC50 at 1 h for the input compound. Input: `COc1cccc2c1C(=O)c1c(O)c3c(c(O)c1C2=O)C[C@@](O)(C(=O)CO)C[C@@H]3O[C@H]1C[C@H](N)[C@H](O)[C@H](C)O1`
> 300 µM

All figures here come from patent US7615361B2.
